Source of measurements: patent US20250236642A1

Biological target: T1, HLA-A*24:02 molecule
T1 construct: MHC class I molecule on C1R-A24 cells, endogenous peptide and b2m stripped at pH 3.3, purified b2m added back; also called product of an HLA-A*24:02 gene; allele A*24:02
Assay: flow cytometry, C1R-A24 cells;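 further: Read-out was the amount of peptide–MHC complex on each cell, taken as the fluorescence intensity of a bound fluorescent antibody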
# log10 Kd (M) listing for each entry below
Form rule: numeric answer, no unit written next to it.

>>> observed("LIITRKSFI (synthetic 9-mer derived from Fas) [peptide of SEQ ID NO: 29]")
-5.6
>>> observed("MLPQTPSHL (synthetic 9-mer derived from c-Myb) [peptide of SEQ ID NO: 24]")
-7.14
>>> observed("SSLDPPKVL (synthetic 9-mer derived from c-Myb) [peptide of SEQ ID NO: 55]")
-5.35

Request: I would be grateful if you could share the reported log10 Kd (M) for EAIDGYITL (synthetic 9-mer; also called H1) [peptide of SEQ ID NO: 47] .
Result: -5.54

Request: What about this binder? LTITRKSFI (synthetic 9-mer derived from Fas) [peptide of SEQ ID NO: 45]
Result: -4.82
